The reported measurements were obtained from patent US8912216B2.

# System name: GST-ALK5 (Homo sapiens, UniProt P36897)
# Sequence (P36897 34-503): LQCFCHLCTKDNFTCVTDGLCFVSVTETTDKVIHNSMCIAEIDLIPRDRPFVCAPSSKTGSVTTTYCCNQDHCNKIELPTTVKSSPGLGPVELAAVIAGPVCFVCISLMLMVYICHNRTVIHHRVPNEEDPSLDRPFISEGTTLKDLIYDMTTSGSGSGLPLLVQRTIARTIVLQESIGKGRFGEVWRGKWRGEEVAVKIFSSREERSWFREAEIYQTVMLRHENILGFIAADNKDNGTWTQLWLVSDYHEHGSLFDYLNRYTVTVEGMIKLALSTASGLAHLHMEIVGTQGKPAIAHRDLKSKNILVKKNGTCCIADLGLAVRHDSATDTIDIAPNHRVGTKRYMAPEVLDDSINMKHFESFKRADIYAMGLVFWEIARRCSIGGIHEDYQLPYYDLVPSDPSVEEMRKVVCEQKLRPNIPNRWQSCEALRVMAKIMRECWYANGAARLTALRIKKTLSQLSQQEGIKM
# Assay details: In-vitro (enzyme) kinase assay, 384-well flashplate (Example 36)
# Format: biochemical
# Condition details: GST-ALK5, GST-SMAD2 substrate, 3 mM ATP, 30° C., 45 min; read-out: TβR activity (Example 36)
pIC50: −log10 of the molar value.
Measurement name: pIC50

- Chem smiles: "Fc1ccc(F)c(-c2cc(-c3cncc(-c4cnn(CCN5CCCC5)c4)c3)c3cccnc3n2)c1"
  System name: "GST-ALK5 (Homo sapiens, UniProt P36897)"
  pIC50: "> 7.00"

Per the reported GST-ALK5 (Homo sapiens, UniProt P36897) data, CN1CCN(c2ccc(-c3cncc(-c4cc(-c5cc(F)ccc5F)nc5ncccc45)c3)cn2)CC1 has pIC50 of > 7.00

Form field, pIC50 with GST-ALK5 (Homo sapiens, UniProt P36897), item Fc1ccc(Cl)cc1-c1cc(-c2cncc(-c3cnn(CCN4CCOCC4)c3)c2)c2cccnc2n1 : > 7.00
